Test system: HLA-A*24
protocol.text: MHC binding assay, UV-ligand exchange with beta2m ELISA, HLA-A*24
Parameters: species or system human
test.parameters: binding to HLA-A*24, UV-ligand exchange, β2m ELISA
reported.endpoint: Peptide exchange (MHC class I binding score, peptide exchange yield)

379 (VFIAQGYTL; listed as Homo sapiens) [compound 379] :: ++++ (>=75% = ++++)
170 (QYPFHVPLL; listed as Homo sapiens) [compound 170] :: ++++ (>=75% = ++++)
137 (EYLHNCSYF; listed as Homo sapiens) [compound 137] :: ++++ (>=75% = ++++)
319 (KYSDVKNLI; listed as Homo sapiens) [compound 319] :: ++++ (>=75% = ++++)
173 (QYLEKYYNL; listed as Homo sapiens) [compound 173] :: ++++ (>=75% = ++++)

Query :: Answer with the recorded Peptide exchange (MHC class I binding score, peptide exchange yield) of 220 (SYSEIKDFL; listed as Homo sapiens) [compound 220] only.
Result :: ++++ (>=75% = ++++)

----------
experimental.target: HLA-A*02 (Homo sapiens, UniProt P04439, D140Y/D185E/D98H/E176V/E277Q/G131W/G231S/I119V/I121R/I166T/I218V/N151K/N90K/P208A/P217A/Q86G/Q94H/R138H/R169H)
protocol.text: MHC binding assay, UV-ligand exchange with beta2m ELISA, HLA-A*02
test.parameters: peptide exchange yield
reported.endpoint: MHC class I binding score, Peptide exchange

// solved cases for MHC class I binding score, Peptide exchange follow
91 (SSLEPQIQPV; listed as Homo sapiens) [compound 91] :: + (<20% = +)
90 (GAVAEEVLSSI; listed as Homo sapiens) [compound 90] :: + (<20% = +)
43 (LLWAGPVTA; listed as Homo sapiens) [compound 43] :: +++ (50%-75% = +++)
77 (IVLSTIASV; listed as Homo sapiens) [compound 77] :: +++ (50%-75% = +++)
326 (SLLPLVWKI; listed as Homo sapiens) [compound 326] :: +++ (50%-75% = +++)
60 (FLIDTSASM; listed as Homo sapiens) [compound 60] :: ++ (20%-49% = ++)

Query :: Answer with the recorded MHC class I binding score, Peptide exchange of 325 (RLLPKVQEV; listed as Homo sapiens) [compound 325] only.
Result :: ++ (20%-49% = ++)

Query :: Answer with the recorded MHC class I binding score, Peptide exchange of 7 (AAAAKVPEV; listed as Homo sapiens) [compound 7] only.
Result :: +++ (50%-75% = +++)

Query :: Answer with the recorded MHC class I binding score, Peptide exchange of 26 (KVDGVVIQL; listed as Homo sapiens) [compound 26] only.
Result :: +++ (50%-75% = +++)

----------
experimental.target: HLA-A*02 (Homo sapiens, UniProt P04439, D140Y/D185E/D98H/E176V/E277Q/G131W/G231S/I119V/I121R/I166T/I218V/N151K/N90K/P208A/P217A/Q86G/Q94H/R138H/R169H)
protocol.text: MHC binding assay, UV-ligand exchange with beta2m ELISA, HLA-A*02
test.parameters: peptide exchange yield
reported.endpoint: MHC class I binding score, Peptide exchange

// solved cases for MHC class I binding score, Peptide exchange follow
84 (FLEEEITRV; listed as Homo sapiens) [compound 84] :: +++ (50%-75% = +++)
12 (GLIYEETRGV; listed as Homo sapiens) [compound 12] :: ++ (20%-49% = ++)
37 (ALINDILGELVKL; listed as Homo sapiens) [compound 37] :: +++ (50%-75% = +++)
49 (LLDESKLTL; listed as Homo sapiens) [compound 49] :: +++ (50%-75% = +++)
339 (VLGPGPPPL; listed as Homo sapiens) [compound 339] :: ++ (20%-49% = ++)
28 (TLYSMDLMKV; listed as Homo sapiens) [compound 28] :: +++ (50%-75% = +++)
2 (ALYGKLLKL; listed as Homo sapiens) [compound 2] :: +++ (50%-75% = +++)
32 (ILADEAFFSV; listed as Homo sapiens) [compound 32] :: +++ (50%-75% = +++)

Query :: Answer with the recorded MHC class I binding score, Peptide exchange of 322 (ALVSGGVAQA; listed as Homo sapiens) [compound 322] only.
Result :: +++ (50%-75% = +++)

Query :: Answer with the recorded MHC class I binding score, Peptide exchange of 13 (VLRDNIQGI; listed as Homo sapiens) [compound 13] only.
Result :: +++ (50%-75% = +++)

----------
experimental.target: HLA-A*02 (Homo sapiens, UniProt P04439, D140Y/D185E/D98H/E176V/E277Q/G131W/G231S/I119V/I121R/I166T/I218V/N151K/N90K/P208A/P217A/Q86G/Q94H/R138H/R169H)
protocol.text: MHC binding assay, UV-ligand exchange with beta2m ELISA, HLA-A*02
test.parameters: peptide exchange yield
reported.endpoint: MHC class I binding score, Peptide exchange

// solved cases for MHC class I binding score, Peptide exchange follow
3 (TLLGKQVTL; listed as Homo sapiens) [compound 3] :: +++ (50%-75% = +++)
25 (IQADDFRTL; listed as Homo sapiens) [compound 25] :: ++ (20%-49% = ++)
337 (KVLGKIEKV; listed as Homo sapiens) [compound 337] :: +++ (50%-75% = +++)
24 (FLWNGEDSAL; listed as Homo sapiens) [compound 24] :: +++ (50%-75% = +++)

Query :: Answer with the recorded MHC class I binding score, Peptide exchange of 48 (TLDHKPVTV; listed as Homo sapiens) [compound 48] only.
Result :: ++ (20%-49% = ++)

Query :: Answer with the recorded MHC class I binding score, Peptide exchange of 74 (ILDETLENV; listed as Homo sapiens) [compound 74] only.
Result :: ++ (20%-49% = ++)

Query :: Answer with the recorded MHC class I binding score, Peptide exchange of 51 (LLLDGDFTL; listed as Homo sapiens) [compound 51] only.
Result :: +++ (50%-75% = +++)

Query :: Answer with the recorded MHC class I binding score, Peptide exchange of 340 (SVAKTILKR; listed as Homo sapiens) [compound 340] only.
Result :: ++ (20%-49% = ++)

Query :: Answer with the recorded MHC class I binding score, Peptide exchange of 35 (YVLPKLYVKL; listed as Homo sapiens) [compound 35] only.
Result :: ++ (20%-49% = ++)

----------
Test system: HLA-A*24
protocol.text: MHC binding assay, UV-ligand exchange with beta2m ELISA, HLA-A*24
Set-up: species or system human
test.parameters: binding to HLA-A*24, UV-ligand exchange, β2m ELISA
reported.endpoint: Peptide exchange (MHC class I binding score, peptide exchange yield)

271 (RFLMKSYSF; listed as Homo sapiens) [compound 271] :: ++++ (>=75% = ++++)
172 (VFIFKGNEF; listed as Homo sapiens) [compound 172] :: ++++ (>=75% = ++++)
298 (AYKSEVVYF; listed as Homo sapiens) [compound 298] :: ++++ (>=75% = ++++)
248 (AFPTFSVQL; listed as Homo sapiens) [compound 248] :: ++++ (>=75% = ++++)
262 (VYSSQFETI; listed as Homo sapiens) [compound 262] :: ++++ (>=75% = ++++)

Query :: Answer with the recorded Peptide exchange (MHC class I binding score, peptide exchange yield) of 154 (VYGVPTPHF; listed as Homo sapiens) [compound 154] only.
Result :: ++++ (>=75% = ++++)

Query :: Answer with the recorded Peptide exchange (MHC class I binding score, peptide exchange yield) of 311 (EYLQNLNHI; listed as Homo sapiens) [compound 311] only.
Result :: ++++ (>=75% = ++++)

----------
experimental.target: HLA-A*02 (Homo sapiens, UniProt P04439, D140Y/D185E/D98H/E176V/E277Q/G131W/G231S/I119V/I121R/I166T/I218V/N151K/N90K/P208A/P217A/Q86G/Q94H/R138H/R169H)
protocol.text: MHC binding assay, UV-ligand exchange with beta2m ELISA, HLA-A*02
test.parameters: peptide exchange yield
reported.endpoint: MHC class I binding score, Peptide exchange

// solved cases for MHC class I binding score, Peptide exchange follow
321 (SLWFKPEEL; listed as Homo sapiens) [compound 321] :: +++ (50%-75% = +++)
54 (FINPKGNWLL; listed as Homo sapiens) [compound 54] :: +++ (50%-75% = +++)
80 (TLDEYLTYL; listed as Homo sapiens) [compound 80] :: +++ (50%-75% = +++)
83 (ELLEYLPQL; listed as Homo sapiens) [compound 83] :: +++ (50%-75% = +++)
41 (FVLPLVVTL; listed as Homo sapiens) [compound 41] :: +++ (50%-75% = +++)
33 (LLLPLLPPLSPSLG; listed as Homo sapiens) [compound 33] :: +++ (50%-75% = +++)

Now look at this entry.
Query :: Answer with the recorded MHC class I binding score, Peptide exchange of 82 (VLLRVLIL; listed as Homo sapiens) [compound 82] only.
Result :: ++ (20%-49% = ++)
